assayProcedure: CCTE_Shafer_MEA_acute_burst_number: CCTE's Neural Acute Assay for Single-Electrode Bursts, Shafer Lab (AID 2284013)
Method: CCTE_Shafer_MEA_acute assay is conducted using Axion Biosystems 48 well microelectrode array (MEA) plates and Maestro recording system. Each well of the MEA plate contains a grid of 16 microelectrodes embedded in the culture surface. Electrically active cells, such as neurons, can be cultured over the electrodes, and electrical activity in these cells can be recorded extracellularly. […]
Activity calls are given as the source filed them. How the source made its calls: active means hit-call score of the fitted dose curve at least 0.9, where 1 is the maximum; inactive means score below 0.9.
Outcomes: active, inactive

compound: CC(C)(OOC(C)(C)c1ccccc1)c1ccccc1
cat: inactive
//
compound: O=[N+]([O-])C(Br)(CO)CO
cat: inactive
//
compound: O=C(N[C@H](c1ccccc1)[C@@H]1CN2CCC1CC2)c1c(Cl)ccc(C(F)(F)F)c1Cl
cat: active
//
compound: CCCCCCCCn1sccc1=O
cat: inactive
//
compound: ClC1=C(Cl)C2(Cl)C3C(Cl)C=CC3C1(Cl)C2(Cl)Cl (stereo not given)
cat: active

* * *

assayProcedure: APR_HepG2_MitoMembPot_24hr: Apredica 24-hour HepG2 Assay for Mitochondrial Membrane Potential (AID 2282911)
reportedConditions: imaging, actives raise or lower the signal
The source made the active and inactive calls. Rule for the calls: active = hit-call score of the fitted dose curve at least 0.9, where 1 is the maximum; inactive = score below 0.9.
Outcomes: active, inactive

compound: OCCCl
cat: inactive
--
compound: Nc1ccc(Cc2ccc(N)cc2)cc1
cat: inactive
--
compound: Cc1cccc(N)c1N
cat: active
--
compound: Clc1ccccc1Cl
cat: inactive
--
compound: CCN(CC)N=O
cat: inactive
--
compound: O=C(N[C@H](c1ccccc1)[C@@H]1CN2CCC1CC2)c1c(Cl)ccc(C(F)(F)F)c1Cl
cat: inactive
--
compound: CC(C)(C)C(O)(CCc1ccc(Cl)cc1)Cn1cncn1 (configuration not stated)
cat: inactive
--
compound: O=[N+]([O-])C(Br)(CO)CO
cat: active
--
compound: c1ccc(C2CO2)cc1 (configuration not stated)
cat: inactive
--
compound: Oc1ccccc1Cl
cat: inactive
--
compound: ClCCOCCCl
cat: inactive
--
compound: O=C(O)C1C2CCC(O2)C1C(=O)O (configuration not stated)
cat: inactive

* * *

assayProcedure: BSK_CASM3C_SRB: Viability Assessment in the BioMAP Diversity Plus: CASM3C Assay (AID 2283050);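 further: total protein by SRB staining as cytotoxicity measure in parallel cultures; cells exposed to compound for 24 h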
reportedConditions: primary human coronary artery smooth muscle cells
Activity calls are given as the source filed them. Rule for the calls: active = hit-call score of the fitted dose curve at least 0.9, where 1 is the maximum; inactive = score below 0.9.
Outcomes: 1 for active, -1 for inactive

molecule: COC(=O)Nc1nc2ccccc2[nH]1
cat: -1
//
molecule: CC(C)(O)c1cnn2c(-c3ccc(F)c(-c4c(F)cccc4C#N)c3)cnc2n1
cat: -1
//
molecule: Nc1ccc(N=Nc2ccccc2)cc1
cat: -1
//
molecule: CCCCCCCCn1sccc1=O
cat: 1
//
molecule: CCCCC(CC)COC(=O)c1ccc(C(=O)OCC(CC)CCCC)c(C(=O)OCC(CC)CCCC)c1 (stereo not given)
cat: -1

* * *

Read-out: Interleukin-1 alpha (IL1a), IL1A (gene 3552)
assayProcedure: BSK_KF3CT_IL1a: BioMAP Diversity Plus: KF3CT Assay for Interleukin-1 alpha (IL1a) Biomarker Activity (AID 2283070)
reportedConditions: primary human keratinocytes with fibroblasts; actives raise or lower the signal
Active and inactive are the calls of the source. The calls were made as follows: active = hit-call score of the fitted dose curve at least 0.9, where 1 is the maximum; inactive = score below 0.9.
Outcomes: label 1 = active, label 0 = inactive

compound: O=[N+]([O-])C(Br)(CO)CO
cat: label 1

compound: CN(C)c1ccc(C(=O)c2ccc(N(C)C)cc2)cc1
cat: label 0

compound: c1ccc(C2CO2)cc1 (stereo not drawn)
cat: label 0

compound: Nc1ccc(Oc2ccc(N)cc2)cc1
cat: label 0

compound: CCC[CH2][Sn]([Cl])([CH2]CCC)[CH2]CCC
cat: label 1

compound: CCN(CC)CCO
cat: label 0

compound: CCCCCOC(=O)c1ccccc1C(=O)OCCCCC
cat: label 0

compound: c1ccc2c(c1)-c1cccc3cccc-2c13
cat: label 0

compound: C[C@]12C=CC3=C4CCC(=O)C=C4CC[C@H]3[C@@H]1CC[C@@H]2O
cat: label 0

compound: CO[C@@H]1[C@H](OC(=O)NC(=O)CCl)CC[C@]2(CO2)[C@H]1[C@@]1(C)O[C@@H]1CC=C(C)C
cat: label 1

compound: CCCCOC(=O)c1ccccc1C(=O)OCc1ccccc1
cat: label 0

compound: Cc1cccc(N)c1N
cat: label 0

compound: Cc1ccc(N=C=O)cc1N=C=O
cat: label 0

* * *

assayProcedure: BSK_hDFCGF_Proliferation: Cell Proliferation Assessment in the BioMAP Diversity Plus: hDFCGF Assay (AID 2283059);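 further: curves fitted for both rise and fall of signal versus DMSO baseline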
reportedConditions: primary human foreskin fibroblasts
Activity calls are given as the source filed them. Rule for the calls: active = hit-call score of the fitted dose curve at least 0.9, where 1 is the maximum; inactive = score below 0.9.
Outcomes: yes (1) for active, no (0) for inactive

compound: O=P(OCCCl)(OCCCl)OCCCl
cat: no (0)
//
compound: Clc1ccccc1Cl
cat: no (0)
//
compound: Cc1ccc(N)cc1
cat: no (0)
//
compound: CCC[CH2][Sn]([Cl])([CH2]CCC)[CH2]CCC
cat: yes (1)
//
compound: ClC1=C(Cl)C2(Cl)C3C(Cl)C=CC3C1(Cl)C2(Cl)Cl (stereo not given)
cat: yes (1)

* * *

Read-out: Insulin Like Growth Factor 1 (IGF1), IGF1 (gene 3479)
assayProcedure: LTEA_HepaRG_IGF1: Life Technologies and Expression Analysis (LTEA) Assay for Insulin Like Growth Factor 1 (IGF1) using HepaRG (AID 2283506)
reportedConditions: mRNA level, 48 h; actives raise or lower the signal
The source made the active and inactive calls. The calls were made as follows: active = hit-call score of the fitted dose curve at least 0.9, where 1 is the maximum; inactive = score below 0.9.
Outcomes: active, inactive

compound: Cn1cc(-c2ccccc2)c(=O)c(-c2cccc(C(F)(F)F)c2)c1
cat: inactive
--
compound: O=[N+]([O-])c1ccc(Oc2ccc(Cl)cc2Cl)cc1
cat: active
--
compound: CN(C)[C@@H]1C(=O)C(C(N)=O)=C(O)[C@@]2(O)C(=O)C3=C(O)c4c(O)cccc4[C@@](C)(O)[C@H]3C[C@@H]12
cat: inactive
--
compound: CN(C)c1ccccc1
cat: inactive
--
compound: CCCCCCCCCCCCCN1CC(C)OC(C)C1 (stereo not given)
cat: inactive
--
compound: O=P(OCCCl)(OCCCl)OCCCl
cat: inactive
--
compound: Cc1ccc(N)cc1
cat: inactive
--
compound: C1=Cc2cccc3cccc1c23
cat: inactive
--
compound: CCN(CC)CCO
cat: inactive
--
compound: CC(C)(C)OOC(C)(C)CCC(C)(C)OOC(C)(C)C
cat: inactive
--
compound: OCCCBr
cat: inactive
--
compound: Nc1cc(Cl)cc(C(=O)O)c1Cl
cat: inactive
--
compound: CC(C)(O)c1cnn2c(-c3ccc(F)c(-c4c(F)cccc4C#N)c3)cnc2n1
cat: active
--
compound: CCCCC(CC)COC(=O)c1ccc(C(=O)OCC(CC)CCCC)c(C(=O)OCC(CC)CCCC)c1 (stereo not given)
cat: inactive
--
compound: Cc1cccc(N)c1N
cat: active
--
compound: CCC12COCN1COC2
cat: inactive
--
compound: c1ccc2c(c1)-c1cccc3cccc-2c13
cat: inactive
--
compound: CCCCOC(=O)c1ccccc1C(=O)OCc1ccccc1
cat: inactive
--
compound: CC(C)N(Cc1ccccc1)C(=O)C(C)(C)C
cat: active
--
compound: c1ccc(C2CO2)cc1 (stereo not given)
cat: inactive
--
compound: Clc1ccccc1Cl
cat: inactive
--
compound: Nc1ccc(Oc2ccc(N)cc2)cc1
cat: inactive
--
compound: Nc1ccc(Cl)cc1N
cat: active
--
compound: O=Cc1ccco1
cat: inactive
--
compound: CN(C)c1ccc(C(=O)c2ccc(N(C)C)cc2)cc1
cat: inactive
--
compound: CC(C)COC(=O)c1ccccc1C(=O)OCC(C)C
cat: inactive
--
compound: CO[C@@H]1[C@H](OC(=O)NC(=O)CCl)CC[C@]2(CO2)[C@H]1[C@@]1(C)O[C@@H]1CC=C(C)C
cat: active
--
compound: C[N+](C)(C)CC1CO1 (stereo not given)
cat: inactive
--
compound: Cc1ccc(N=C=O)cc1N=C=O
cat: inactive
--
compound: COP(=S)(OC)SCN1C(=O)c2ccccc2C1=O
cat: inactive
--
compound: Nc1ccc(Cc2ccc(N)cc2)cc1
cat: inactive
--
compound: CCOc1cccc(C2(N3CCN(c4ccccc4)CC3)CCC(C)CC2)c1 (stereo not given)
cat: inactive
--
compound: O=C(Nc1ccccc1)c1ccccc1I
cat: active
--
compound: O=C(Oc1ccc(Br)cc1)N1CCN2CCC1CC2
cat: inactive
--
compound: O=C(O)C1C2CCC(O2)C1C(=O)O (stereo not given)
cat: active

* * *

Read-out: Paternally Expressed 10 (PEG10), PEG10 (gene 23089)
assayProcedure: LTEA_HepaRG_PEG10: Life Technologies and Expression Analysis (LTEA) Assay for Paternally Expressed 10 (PEG10) using HepaRG (AID 2283520);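 on AC50: differentiated HepaRG human liver cells in serum-free induction medium with 0.5% DMSO; PEG10 transcript by qRT-PCR normalised to ACTB GAPDH and POLR2A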
reportedConditions: mRNA level, 48 h; actives raise or lower the signal
The source made the active and inactive calls. How the source made its calls: active means hit-call score of the fitted dose curve at least 0.9, where 1 is the maximum; inactive means score below 0.9.

compound: Clc1ccc(Cl)c(Cl)c1
AC50: 50 µM (active)

compound: CCCCCOC(=O)c1ccccc1C(=O)OCCCCC
AC50: inactive

compound: CC(C)(O)c1cnn2c(-c3ccc(F)c(-c4c(F)cccc4C#N)c3)cnc2n1
AC50: inactive

compound: ClC1=C(Cl)[C@]2(Cl)[C@H]3[C@H]([C@@H]4C=C[C@H]3C4)[C@@]1(Cl)C2(Cl)Cl
AC50: inactive

compound: O=C(Oc1ccc(Br)cc1)N1CCN2CCC1CC2
AC50: inactive

compound: c1ccc2c(c1)oc1ccccc12
AC50: inactive

compound: CC(C)COC(=O)c1ccccc1C(=O)OCC(C)C
AC50: inactive

compound: ClC1=C(Cl)C2(Cl)C3C(Cl)C=CC3C1(Cl)C2(Cl)Cl (configuration not stated)
AC50: inactive

compound: COP(=S)(OC)SCN1C(=O)c2ccccc2C1=O
AC50: inactive

compound: Cn1cc(-c2ccccc2)c(=O)c(-c2cccc(C(F)(F)F)c2)c1
AC50: 23.5 µM (active)

compound: CCC[CH2][Sn]([Cl])([CH2]CCC)[CH2]CCC
AC50: inactive

compound: Cc1cccc(N)c1N
AC50: 50 µM (active)

compound: CCOc1cccc(C2(N3CCN(c4ccccc4)CC3)CCC(C)CC2)c1 (configuration not stated)
AC50: inactive

compound: C1=Cc2cccc3cccc1c23
AC50: inactive

compound: C[N+](C)(C)CC1CO1 (configuration not stated)
AC50: inactive

compound: Nc1cc(Cl)cc(C(=O)O)c1Cl
AC50: inactive

compound: CCN(CC)CCO
AC50: inactive
